- EXPERIMENTAL SYSTEM: human αvβ3 integrin (Homo sapiens, UniProt P05106+P06756, DEL719-788)
- MEASUREMENT NOTES: competitive ELISA-like integrin binding assay (immobilized vitronectin, soluble integrin)
- CONDITIONS: competition with immobilized vitronectin
pIC50: −log10 of the molar value.
PROPERTY LABEL: pIC50

[N-]=[N+]=NCCC(=O)NCCCC[C@@H]1NC(=O)[C@@H](Cc2ccccc2)NC(=O)[C@H](CC(=O)O)NC(=O)CNC(=O)[C@H](CCCNC(=N)N)NC1=O = 9.15
